Numbers sourced from patent US20260285880A1.

- target system: Flpin-293-PDE4B2 cells (Homo sapiens)
- Sequence (Q07343 1-564 isoform Q07343-2): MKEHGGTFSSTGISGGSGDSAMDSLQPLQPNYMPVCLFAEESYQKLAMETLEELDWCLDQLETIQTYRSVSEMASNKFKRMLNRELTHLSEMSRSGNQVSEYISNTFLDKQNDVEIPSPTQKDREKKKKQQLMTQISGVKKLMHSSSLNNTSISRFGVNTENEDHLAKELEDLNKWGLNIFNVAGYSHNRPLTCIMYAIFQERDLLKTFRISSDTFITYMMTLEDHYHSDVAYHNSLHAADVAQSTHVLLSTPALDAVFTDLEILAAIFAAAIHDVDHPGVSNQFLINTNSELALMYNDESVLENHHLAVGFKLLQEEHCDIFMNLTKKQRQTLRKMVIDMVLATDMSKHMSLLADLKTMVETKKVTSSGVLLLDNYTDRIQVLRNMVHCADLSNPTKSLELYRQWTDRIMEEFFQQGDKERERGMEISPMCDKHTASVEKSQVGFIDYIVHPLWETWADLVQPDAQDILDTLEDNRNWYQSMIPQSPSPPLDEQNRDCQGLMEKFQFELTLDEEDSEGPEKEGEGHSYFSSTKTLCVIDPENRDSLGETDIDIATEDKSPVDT
- assay protocol: cell-based
- test parameters: read-out: Cell Inhibition % @1 nM, 1 nM, Flpin-293-PDE4B2 cells
// not met strictly below 10% in inhibition at 0.001 µM; met otherwise

- molecule: "Cn1cc(Nc2nc(N3CCc4cc(N5CC6CC6C5)ccc4C3)nc3c2[S+]([O-])CC3)cn1 (centres unmarked) [Compound 223]"
  assigned class: "met"
- molecule: "Cc1ccc2c(c1)OC[C@H]1CN(c3nc4c(c(NC5(CO)CCC5)n3)[S+]([O-])CC4)CC[C@H]21 (some centres unmarked) [Compound 112]"
  assigned class: "met"
- molecule: "COC[C@H]1CCCN1c1ccc2c(c1)CCN(c1nc3c(c(NC4(CO)CCC4)n1)[S+]([O-])CC3)C2 (some centres unmarked) [Compound 146]"
  assigned class: "met"
- molecule: "[O-][S+]1CCc2nc(N3CCc4cc(-c5cnco5)ccc4C3)nc(NC3(CO)CCC3)c21 (centres unmarked) [Compound 85]"
  assigned class: "met"
- molecule: "[O-][S+]1CCc2nc(N3CCc4cc(F)c(F)cc4C3)nc(NC3(CO)CCC3)c21 (centres unmarked) [Compound 95]"
  assigned class: "not met"
- molecule: "[O-][S+]1CCc2nc(N3CC[C@H]4c5ccc(Cl)cc5OC[C@H]4C3)nc(NC3(CO)CCC3)c21 (some centres unmarked) [Compound 116]"
  assigned class: "not met"
- molecule: "[O-][S+]1CCc2nc(N3CCc4cc(N5CCC(C(F)(F)F)C5)ccc4C3)nc(NC3(CO)CCC3)c21 (centres unmarked) [Compound 156]"
  assigned class: "not met"
- molecule: "C[C@H]1c2ccc(N3CCCC3)cc2CCN1c1nc2c(c(Nc3cn(C)nn3)n1)[S+]([O-])CC2 (some centres unmarked) [Compound 214]"
  assigned class: "not met"
- molecule: "[O-][S+]1CCc2nc(N3CCc4cc(N5CCC(F)C5)ccc4C3)nc(NC3(CO)CCC3)c21 (centres unmarked) [Compound 149]"
  assigned class: "not met"
- molecule: "Cn1cc(Nc2nc(N3CCc4cc(N5CCCC5)ccc4C3)nc3c2[S+]([O-])CC3)cn1 (centres unmarked) [Compound 168]"
  assigned class: "not met"
- molecule: "[O-][S+]1CCc2nc(N3CCc4cc(N5CC6CC6C5)ccc4C3)nc(NC3(CO)CCC3)c21 (centres unmarked) [Compound 145]"
  assigned class: "not met"
- molecule: "[O-][S+]1CCc2nc(N3CCc4cc(N5CCCC5)ccc4C3)nc(Nc3cnn(C4COC4)c3)c21 (centres unmarked) [Compound 192]"
  assigned class: "met"
- molecule: "CN(C)C1CCN(c2ccc3c(c2)CCN(c2nc4c(c(NC5(CO)CCC5)n2)[S+]([O-])CC4)C3)C1 (centres unmarked) [Compound 148]"
  assigned class: "not met"
- molecule: "C[C@H]1c2ccc(N3CCCC3)cc2CCN1c1nc2c(c(NC3CS(=O)(=O)C3)n1)[S+]([O-])CC2 (some centres unmarked) [Compound 204]"
  assigned class: "met"
